Listing of recorded koff by entry.
# tested_system: T1, Extracellular domain of cyno PD1 (cPD1-ECD) (Macaca fascicularis (cynomolgus))
# T1 construct: Expressed with a hexahistidine tag or as Fc fusion; also called cynoPD1-ECD; cynoPD-1-ECD
# T1 chain: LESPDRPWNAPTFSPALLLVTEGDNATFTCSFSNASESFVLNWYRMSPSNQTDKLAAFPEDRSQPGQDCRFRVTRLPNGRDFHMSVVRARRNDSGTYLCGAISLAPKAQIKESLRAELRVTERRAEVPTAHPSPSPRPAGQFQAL
# measurement_notes: SPR ProteOn, captured mAb, cynoPD1-ECD analyte;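 note: ProteOn XPR36 SPR with antibodies held by anti-IgG Fc on a GLC chip, kinetic constants obtained by fitting to a Langmuir 1:1 binding model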
Report the figure in s⁻¹ without appending any unit label.

Some entries whose results are on file:
Ask | Tell me koff reported for PD1B195 (antibody, V domains shown, also called PD1H170/PD1L67) VH: QVQLVQSGAEVKKPGSSVKVSCKASGGTFSSYAISWVRQAPGQGLEWMGGIIPIFDTANYAQKFQGRVTITADESTSTAYMELSSLRSEDTAVYYCARPGLAAAYDTGSLDYWGQGTLVTVSS VL: EIVLTQSPATLSLSPGERATLSCRASQSVDSYLAWYQQKPGQAPRLLIYDASNRATGIPARFSGSGSGTDFTLTISSLEPEDFAVYYCQQREYWPLTFGQGTKVEIK
Reply | 0.000408

Ask | Tell me koff reported for PD1B197 (antibody, V domains shown, also called PD1H163/PD1L185) VH: QVQLVQSGAEVKKPGSSVKVSCKASGGTFKSYVIHWVRQAPGQGLEWMGGIIPIFGTANYAQKFQGRVTITADESTSTAYMELSSLRSEDTAVYYCARGYVRATGMLDYWGQGTLVTVSS VL: EIVLTQSPATLSLSPGERATLSCRASQSVSNYLAWYQQKPGQAPRLLIYDASNRATGIPARFSGSGSGTDFTLTISSLEPEDFAVYYCQQRAYWPLTFGQGTKVEIK
Reply | 0.00126

Ask | Tell me koff reported for PD1B198 (antibody, V domains shown, also called PD1H163/PD1L187) VH: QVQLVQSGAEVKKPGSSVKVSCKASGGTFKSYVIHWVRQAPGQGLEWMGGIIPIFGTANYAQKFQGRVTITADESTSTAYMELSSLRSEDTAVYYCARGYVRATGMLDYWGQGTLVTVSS VL: EIVLTQSPATLSLSPGERATLSCRASQSVSSYLAWYQQKPGQAPRLLIEDASSRATGIPARFSGSGSGTDFTLTISSLEPEDFAVYYCQQRAEWPLTFGQGTKVEIK
Reply | 0.00416

Ask | Tell me koff reported for PD1B11 (antibody, V domains shown, Tested as IgG2sigma/kappa; also called PD1H3/PH9L3) VH: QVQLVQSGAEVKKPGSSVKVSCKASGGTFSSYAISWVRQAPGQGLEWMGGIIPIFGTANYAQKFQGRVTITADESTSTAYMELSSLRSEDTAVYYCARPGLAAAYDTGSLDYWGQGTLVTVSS VL: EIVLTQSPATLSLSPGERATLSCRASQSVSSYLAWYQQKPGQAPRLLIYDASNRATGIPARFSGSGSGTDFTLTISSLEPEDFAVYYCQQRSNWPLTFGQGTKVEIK
Reply | 0.00942

More entries:
Ask | Tell me koff reported for PD1B199 (antibody, V domains shown, also called PD1H164/PD1L86) VH: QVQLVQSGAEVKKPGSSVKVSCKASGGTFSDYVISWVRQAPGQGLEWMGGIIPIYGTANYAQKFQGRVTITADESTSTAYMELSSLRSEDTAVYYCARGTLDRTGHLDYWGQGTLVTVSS VL: EIVLTQSPATLSLSPGERATLSCRASQSVSSYLAWYQQKPGQAPRLLIHDASTRATGIPARFSGSGSGTDFTLTISSLEPEDFAVYYCQQRNYWPLTFGQGTKVEIK
Reply | 0.000177
